The measured values listed here are drawn from PubChem BioAssay AID1963961.

tested on: K98450-129-R-PDC multicell spheroids, viability; assay: Anticancer human tumor K98450-129-R-PDC patient-derived colon adenocarcinoma cell line growth inhibition [PI3K]; conditions: second compound 0.01 µM; first compound 3.16 µM; stronger effect = lower value;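 further: spheroids exposed to agents for seven days before read-out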
quantity: viability, T/C (%)
Kindly answer with a numeric value in %, unit omitted.

**Query** Give K98450-129-R-PDC multicell spheroids, viability viability, T/C for CC(C)NCC(C(=O)N1CCN(c2ncnc3c2C(C)CC3O)CC1)c1ccc(Cl)cc1 (stereo unspecified) + COc1c(OCCCN2CCOCC2)ccc2c3n(c(=NC(=O)c4cnc(N)nc4)nc12)CCN3
**Result** 90.6

**Query** Give K98450-129-R-PDC multicell spheroids, viability viability, T/C for CC1(C)CCC(CN2CCN(c3ccc(C(=O)NS(=O)(=O)c4ccc(NCC5CCOCC5)c([N+](=O)[O-])c4)c(Oc4cnc5[nH]ccc5c4)c3)CC2)=C(c2ccc(Cl)cc2)C1 + COc1c(OCCCN2CCOCC2)ccc2c3n(c(=NC(=O)c4cnc(N)nc4)nc12)CCN3
**Result** 95.7

**Query** Give K98450-129-R-PDC multicell spheroids, viability viability, T/C for C[C@@H](NC(=O)c1ncnc(N)c1Cl)c1ncc(C(=O)Nc2cc(C(F)(F)F)c(Cl)cn2)s1 + COc1c(OCCCN2CCOCC2)ccc2c3n(c(=NC(=O)c4cnc(N)nc4)nc12)CCN3
**Result** 105

**Query** Give K98450-129-R-PDC multicell spheroids, viability viability, T/C for CC(Cn1ccc(-c2ccc(C#N)c(Cl)c2)n1)NC(=O)c1cc(C(C)O)[nH]n1 (stereo unspecified) + COc1c(OCCCN2CCOCC2)ccc2c3n(c(=NC(=O)c4cnc(N)nc4)nc12)CCN3
**Result** 90.7

**Query** Give K98450-129-R-PDC multicell spheroids, viability viability, T/C for C=CC(=O)N1CCN(c2nc(=O)n(-c3c(C)ccnc3C(C)C)c3nc(-c4c(O)cccc4F)c(F)cc23)C(C)C1 (stereo unspecified) + CC(Nc1ccc2c(c1)OCCn1cc(N3C(=O)OCC3C(F)F)nc1-2)C(N)=O
**Result** 56.5

**Query** Give K98450-129-R-PDC multicell spheroids, viability viability, T/C for C[C@@H](NC(=O)c1ncnc(N)c1Cl)c1ncc(C(=O)Nc2cc(C(F)(F)F)c(Cl)cn2)s1 + CC(Nc1ccc2c(c1)OCCn1cc(N3C(=O)OCC3C(F)F)nc1-2)C(N)=O
**Result** 118

**Query** Give K98450-129-R-PDC multicell spheroids, viability viability, T/C for Cn1ncc(Cl)c1-c1cc(C(=O)NC(CN)Cc2cccc(F)c2)sc1Cl (stereo unspecified) + CC(Nc1ccc2c(c1)OCCn1cc(N3C(=O)OCC3C(F)F)nc1-2)C(N)=O
**Result** 97.6

**Query** Give K98450-129-R-PDC multicell spheroids, viability viability, T/C for CNC(=O)c1ccc(N2C(=S)N(c3ccc(C#N)c(C(F)(F)F)c3)C(=O)C2(C)C)cc1F + CC(Nc1ccc2c(c1)OCCn1cc(N3C(=O)OCC3C(F)F)nc1-2)C(N)=O
**Result** 108

**Query** Give K98450-129-R-PDC multicell spheroids, viability viability, T/C for CC(C)NCC(C(=O)N1CCN(c2ncnc3c2C(C)CC3O)CC1)c1ccc(Cl)cc1 (stereo unspecified) + CC(Nc1ccc2c(c1)OCCn1cc(N3C(=O)OCC3C(F)F)nc1-2)C(N)=O
**Result** 104

**Query** Give K98450-129-R-PDC multicell spheroids, viability viability, T/C for CC(Cn1ccc(-c2ccc(C#N)c(Cl)c2)n1)NC(=O)c1cc(C(C)O)[nH]n1 (stereo unspecified) + CC(Nc1ccc2c(c1)OCCn1cc(N3C(=O)OCC3C(F)F)nc1-2)C(N)=O
**Result** 101

**Query** Give K98450-129-R-PDC multicell spheroids, viability viability, T/C for C#Cc1c(F)ccc2cc(O)cc(-c3ncc4c(N5CC6CCC(C5)N6)nc(OCC56CCCN5CC(F)C6)nc4c3F)c12 (stereo unspecified) + CC(Nc1ccc2c(c1)OCCn1cc(N3C(=O)OCC3C(F)F)nc1-2)C(N)=O
**Result** 91.9
